System: Trypanosoma cruzi
protocol notes: DNDI: Chagas in Vitro
Assay type: functional, organism-based, Tulahuen C4 (LacZ)
condition details: Trypanosoma cruzi, Tulahuen C4 (LacZ)
Kindly supply the reported IC50 values for the records listed here.

Query: IC50; subject: O=C(C1CC1)N(Cc1cccnc1)c1cncc(-c2nc3ccccc3s2)c1
12.9 nM

If you can, please state the reported IC50 value of CN(CC(O)COc1ccc2cc(Br)ccc2c1)C1CCCCC1 (configuration not stated) .
4550 nM

Endpoint output: IC50 of OC(COc1ccc2cc(Br)ccc2c1)Cn1ccnc1 (configuration not stated) . Value?
30 nM

# query: IC50 of entry CS(=O)(=O)N(Cc1cccnc1)c1ccc(-c2nc3ccccc3s2)cc1
40.5 nM

Any idea what IC50 was measured for CO/N=C(\C)c1ccc(-n2ccnc2)c(NC(=O)c2ccc(-c3ccccc3)nc2)c1 ?
13 nM

# lookup: IC50 of NCC(=O)N(Cc1cccnc1)c1ccc(-c2nc3ccccc3s2)cc1
17 nM

Item CS(=O)(=O)c1ccc(-n2ccnc2)c(NC(=O)c2cnc(-c3ccccc3)nc2)c1 has what recorded IC50?
90 nM

Give its IC50 value. Item: CCN(Cc1cccnc1)c1ccc(-c2nc3ccccc3s2)cc1
351 nM

Please report the recorded IC50 for CCN(Cc1cccnc1)c1ccc(-c2ccc(F)cc2)cc1F .
17 nM

May I ask what IC50 has been recorded for O=c1c2ccccc2nc(-c2ccc(-c3ccccc3)cc2)n1Cc1cccnc1 ?
25.5 nM

Please give the measured IC50 for this molecule: CCS(=O)(=O)N(Cc1cccnc1)c1cncc(-c2nc3ccccc3s2)c1
13.5 nM

Returns the measured IC50 for the input molecule. Input: CCN(c1ccccc1)S(=O)(=O)c1ccc(Cl)c(NC(=O)c2ccc3c(c2)CCNC3)c1
> 1000 nM

Find the recorded IC50 belonging to CO/N=C(\C)c1ccc(-n2ccnc2)c(NC(=O)c2sc(-c3ccccc3)nc2C)c1 and report it.
67.5 nM

Name the reported IC50 value associated with the molecule CN1CCCC(CNCC(O)COc2ccc3cc(Br)ccc3c2)C1 (configuration not stated)
5560 nM

Can you share its IC50? I mean this molecule: CC(=O)N(Cc1cccnc1)c1ccc(-c2ccc(F)cc2)cc1F
53.5 nM

What value of measured IC50 is listed for CO/N=C(\C)c1ccc(-n2ccnc2)c(NC(=O)c2ccc(-c3ccccn3)cc2)c1 ?
> 1000 nM

Query (molecule): CO/N=C(\C)c1ccc(-n2ccnc2)c(NC(=O)c2cnc(-c3ccccc3)cn2)c1 ; field requested: IC50
2.53 nM

Fill in the blank: the reported IC50 of O=C(Nc1ccccc1-n1ccnc1)c1cnc(-c2ccccc2)nc1 is ____.
63 nM

Consider the molecule CCN(Cc1cccnc1)c1cc(F)cc(-c2nc3ccccc3s2)c1 and give its measured IC50.
47 nM

Recorded IC50 of Cc1ccc(-n2ccnc2)c(NC(=O)c2cnc(-c3ccccc3)s2)c1 , please.
1.98 nM

Looking for the measured IC50 of O=C(NCCc1c[nH]cn1)c1ccc(-c2ccccc2)cc1 , can you help?
306 nM

Quick check: IC50 of N#Cc1ccc(-n2ccnc2)c(NC(=O)c2cnc(-c3ccccc3)s2)c1 ?
6 nM
